Values were extracted from PubChem BioAssay AID598.

- EXPERIMENTAL_DETAILS: proliferation blockers of H69AR lung cancer cells, primary screen, cell-based, human, 86K library (AID 598);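 further: multidrug resistant small cell line overexpressing MRP-1 efflux transporter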
- MEASUREMENT_PARAMETERS: H69AR lung tumor viability, ATP luminescence, 72 h; at 10 µM
Screen size: about 85,000 compounds; about 5,100 (6%) were called active.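 How the source made its calls: active means viability at or below 40%; inactive means viability above 40%.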 What follows is part of a selection rich in actives, with near analogues and random picks from the rest.
Outcome field: choose from TRUE = active, FALSE = inactive

Study these solved cases before continuing.
compound="CCOCCCNC(=O)C(NC(=O)CNC(=O)c1ccccc1)c1ccc(C)cc1 (stereo not given)" assigned_label=FALSE
compound=Cc1nc2ccc(C(=O)N3CCN(c4ccccc4)CC3)cc2s1 assigned_label=FALSE
compound=CC(=O)c1ccc2c(c1)c1ccccc1n2CC(C)C assigned_label=FALSE
compound=CCCCCc1ccc(-c2ccc(C(=O)O)cc2)nc1 assigned_label=TRUE
compound="CS(=O)(=O)N(CC(O)Cn1c2ccccc2c2ccccc21)c1cccc2ccccc12 (stereo not given)" assigned_label=TRUE

QUERY: What outcome does the record of this test show for O=C1c2ccccc2S(=O)(=O)N1CC(O)Cn1c2ccccc2c2ccccc21 (stereo not given) ?
RESULT: FALSE

QUERY: Hi, do you know how CCOC(=O)C(=O)Nc1nc(-c2ccccc2)c(CC)s1 came out in this test?
RESULT: FALSE

QUERY: Which outcome was entered for the compound C/C=C/C(=O)Nc1nnc(C(C)C)s1 in this test?
RESULT: FALSE

QUERY: Lab log entry: Cc1cccc(C(=O)N2CCCN(C(=O)c3cccc(C)c3)CC2)c1 — outcome as called in the assay?
RESULT: FALSE

QUERY: Short answer needed: outcome of this test for Cc1ccc(S(=O)(=O)N2CC(=O)Nc3ccccc32)cc1C ?
RESULT: FALSE
